Values compiled from patent US7456133B2.

The reader will find reported chromatographic logP values listed item by item below.
Assay info: Log P by reversed-phase HPLC (C 18), acidic range
Assay type: physicochemical
Protocol conditions: reversed-phase HPLC column (C 18); given in the preparation examples, acidic or neutral range not given
I only need the number, thanks.

CC(C)NC(=S)NCc1c(Cl)ccc(C(=O)C2=C(O)CCCC2=O)c1Cl
2.74
CCn1ncc(C(=O)c2ccc(Cl)c(OCCNC(C)=O)c2Cl)c1OCc1ccc(Br)cc1
2.06

Please turn your attention to the following entry.
Requested field: chromatographic logP. Item: CCOC(=O)c1ccc(Cl)c(OCCCl)c1Cl 3.76

---

Assay info: Log P by reversed-phase HPLC (C 18), acidic range
Type: physicochemical
Protocol conditions: Table 1, labelled a): acidic range, 0.1% aqueous phosphoric acid/acetonitrile gradient, 43° C.
Test readout: log P

Cc1ccccc1NC(=O)NCc1c(S(C)(=O)=O)ccc(C(=O)c2cnn(C)c2O)c1Cl
log P = 1.58^a)
CN(C)C(=O)NCc1c(S(C)(=O)=O)ccc(C(=O)C2C(=O)CCCC2=O)c1Cl
log P = 1.58^a)
